# credit: the supplement of paper PMC10567573

B1: CLCN6 (parent)
chain: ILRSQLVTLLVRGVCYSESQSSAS

Variants of: B1
Test Protocol: protein stability index of a GFP-peptide fusion (GPS, HEK-293T) (PSI 1-6); higher = more stable;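 also: lentivirally expressed fusions sorted by FACS into six bins by GFP to DsRed ratio, PSI derived from sequencing read proportions per bin multiplied by bin number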
Run Parameters: c terminus: a fixed tail appended
Kindly return Criterion met if reported protein stability index is no lower than 3; return Criterion not met if it is lower.

Mutation Label: V14H
Answer Label: Criterion not met
//
Mutation Label: Q20L
Answer Label: Criterion not met
//
Mutation Label: Q5M
Answer Label: Criterion met
//
Mutation Label: S4N
Answer Label: Criterion not met
//
Mutation Label: S21E
Answer Label: Criterion met
//
Mutation Label: I1T
Answer Label: Criterion not met
//
Mutation Label: E18D
Answer Label: Criterion not met
//
Mutation Label: A23I
Answer Label: Criterion met
//
Mutation Label: V11Y
Answer Label: Criterion not met
//
Mutation Label: L9P
Answer Label: Criterion not met
//
Mutation Label: Y16P
Answer Label: Criterion met
//
Mutation Label: T8V
Answer Label: Criterion not met
//
Mutation Label: V14G
Answer Label: Criterion not met
//
Mutation Label: L2D
Answer Label: Criterion not met
